B1: Hairpin Ribozyme (parent)
chain: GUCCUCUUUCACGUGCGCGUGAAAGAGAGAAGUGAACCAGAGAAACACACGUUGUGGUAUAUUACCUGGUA

# Variants of: B1
# Protocol Details: self-cleavage, relative activity (ratio to wild type); higher = more cleavage; co-transcriptional
# self-cleavage >= 0.2 gives condition met, anything below gives condition not met

### Prompt In plain terms: is recorded self-cleavage at least 0.2 for "GUCCUCUUUCAAGUGCGCGUGAAAGAGAGAAGUGAACCAGAGAAACCCACGUUGUGGUAUAUUACCUGGUA" ?
### Response condition met

### Prompt Is reported self-cleavage greater than or equal to 0.2 here: "GUCCUCUUUCACGUGCGCGUGAAAGAGAGAAGUGAACCAGAGAAACACACGUUGUUGUAUAUUACCUCGUA"
### Response condition not met

### Prompt Given the entry "GUCCUCUUUCACGUGCGCGUGAAGGAUAGAAGUGAACCAGAGAAACACACGUUGUGGUAUAUUACCUGGUA" , answer whether its self-cleavage meets or surpasses 0.2.
### Response condition met

### Prompt Evaluate "GUCCUCUUUCACGUGCGCGCGAAAGAGAGAAGUGAACCAGAGAAACACACGUUGGGGUAUAUUACCUGGUA" : self-cleavage at minimum 0.2?
### Response condition met

### Prompt Given "GUCCUCUUUCACGUGCGCGUGAAAGAGAGAAGUGAACCAGAAAAACACACGUUGUGGUAUAUUACCGGGUA" , state whether its self-cleavage is at least 0.2.
### Response condition not met

### Prompt Hi team, for "GUCCUCUUUCACGUGCGAGUGAAAGAGAGAAAUGAACCAGAGAAACACACGUUGUGGUAUAUUACCUGGUA" , is the recorded self-cleavage at or above 0.2?
### Response condition not met

### Prompt Answer whether self-cleavage of "GUCCUCUUUCGCGUGAGCGUGAAAGAGAGAAGUGAACCAGAGAAACACACGUUGUGGUAUAUUACCUGGUA" is greater than or equal to 0.2.
### Response condition met

### Prompt Does "GUCCUCUUUCACGUCCGCGUGAAAGAGAGAAGUGAACCAGAGUAACACACGUUGUGGUAUAUUACCUGGUA" have a reported self-cleavage of at least 0.2?
### Response condition not met

---
### Prompt Record "GUCCUCUUUCACGUGCGCGUAAAAGAGAGAAGUGAACCAGAGAAACACACGUUGUGGUAUAUUACCUAGUA" ; criterion: self-cleavage no lower than 0.2. Met?
### Response condition not met

### Prompt Please tell me: is the variant "GUCCUCUUUCACGUGCGCGUGAAAGCGAGAAGUGAACCAGACAAACACACGUUGUGGUAUAUUACCUGGUA" at or over 0.2 in terms of self-cleavage?
### Response condition met

### Prompt Would you say "GUCCUCUUUUACGUGCGCGUGAAAGAGAGAAGUGAACAAGAGAAACACACGUUGUGGUAUAUUACCUGGUA" shows self-cleavage at minimum 0.2?
### Response condition not met

### Prompt Does the variant "GUCCUCUUUCACGUGCGCGUGAAAGAGAGAAGUGAACCAGAUAAACACACGUUCUGGUAUAUUACCUGGUA" have recorded self-cleavage that is 0.2 or more?
### Response condition not met

### Prompt Please tell me: is the variant "GUCCUCUUUCAAGUGCGCGUGACAGAGAGAAGUGAACCAGAGAAACACACGUUGUGGUAUAUUACCUGGUA" at or over 0.2 in terms of self-cleavage?
### Response condition met

### Prompt // inclusive: self-cleavage at least 0.2? input: "GUCCUCUUUCACGUGCGCGUGAACGAGAGAAGUGAACCAGAGAAACACACGUUGUGGUAUACUACCUGGUA"
### Response condition met

### Prompt Hello, I need to know if "GUCCUCUUUCACGUGCGCGGGAAAGAGAGACGUGAACCAGAGAAACACACGUUGUGGUAUAUUACCUGGUA" has measured self-cleavage not below 0.2. Thanks!
### Response condition not met

### Prompt Check if self-cleavage >= 0.2 (inclusive). Item: "GUCCUCUUUCACGUGCGCGUGAAAGAGAGAAGUGAACCAGAGAAACACACGUUGUGGGAUAUUACCUGGUG"
### Response condition met

### Prompt Has "GUCCUCUUUCAGGUGCGCGUGAAAGAGAGAAGUGAACCAGAGAAACCCACGUUGUGGUAUAUUACCUGGUA" a recorded self-cleavage greater than or equal to 0.2?
### Response condition met

### Prompt Hello, I need to know if "GUCCUCUUUCACGUGCGCGUGAAAGAGAGAAGUGAACCAGAGAAACACACGUUAUGGUAUAUUACCUGGUC" has measured self-cleavage not below 0.2. Thanks!
### Response condition met

### Prompt Determine whether this variant has self-cleavage no lower than 0.2: "GUCCUCUUUCACCUGCGCGUGAAAGAGAGAAGUGAACCAGAGAAACACACGGUGUGGUAUAUUACCUGGUA"
### Response condition met

### Prompt Please check the record "GUCCUCUUUCACGUGCGCGUGAAAGAGAGAAGUGCACCAUAGAAACACACGUUGUGGUAUAUUACCUGGUA" and state if its self-cleavage is at or above 0.2.
### Response condition not met

### Prompt Could you verify whether the entry "GUCCUCUUUCACGUGCGAGUGAAAGAGAGAAGGGAACCAGAGAAACACACGUUGUGGUAUAUUACCUGGUA" shows self-cleavage of no less than 0.2?
### Response condition not met

### Prompt # check: self-cleavage of "GUCCUCUUUCACGUGCGCGUGAAAGAGAGAAGUGAACCAGAGAUACACACGUUGUGGUAUAUAACCUGGUA" is greater than or equal to 0.2
### Response condition not met

### Prompt Would you say "GUCCUCUUUCAAGUGCGCGUGAAAGAGAGAAGUGAACCAGAGAAACACACGUCGUGGUAUAUUACCUGGUA" shows self-cleavage at minimum 0.2?
### Response condition met

### Prompt Assess whether reported self-cleavage for "GUCCUCUUUCACGUGCGCGUGCAAGAGAGAAGCGAACCAGAGAAACACACGUUGUGGUAUAUUACCUGGUA" sits at 0.2 or higher.
### Response condition not met

### Prompt Item "GUCCUCUUUCACGUGCGCGUGAAAGAGAGAAGUGAACCCGAGAAACACACGUUGUGGUAUAUUACAUGGUA" with self-cleavage of 0.2 or above?
### Response condition not met

### Prompt Check this variant for self-cleavage at or above 0.2: "GUCCUCUAUCACGUGCGCGUGAAAGAGAGAAGUGAACCAGAGAAACACACGUUGUGGUAUAUUACAUGGUA"
### Response condition not met

### Prompt Given "GUCCUCUUUCACGUGCGCCUGAAAGAGAGAAGUGAACCAGAGAAACACACGUUGUGGUAUAUUACCUGGUU" , state whether its self-cleavage is at least 0.2.
### Response condition met

### Prompt In plain terms: is recorded self-cleavage at least 0.2 for "GUCCUCUUUCACGUGUGCGUGAAAGAGAGAAGUGAACCAGAGAAACACACGCUGUGGUAUAUUACCUGGUA" ?
### Response condition met

### Prompt # check: self-cleavage of "GUCCGCUUUCACGUGCGCGUGAAAGAGUGAAGUGAACCAGAGAAACACACGUUGUGGUAUAUUACCUGGUA" is greater than or equal to 0.2
### Response condition met
